What %Inh was measured for each of the following?
# Tested on: AKT3
# setupConditions: concentration: 1 μM, replicates: in singlicate; n = 1;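 also: KINOMEscan kinase panel screen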
Respond with the bare value in %.

Lookup: Give %Inh for the following compound: Cc1ccc(C(=O)Nc2ccc(Nc3ccnc4cc(-c5ccccn5)ccc34)cc2O)cc1.Cl [GW440146]
Found: 0

Lookup: Given Cc1csc(-c2nc(Nc3ccncc3)c3ccccc3n2)n1 [GW869640] , respond with its %Inh.
Found: 15

Lookup: Give recorded %Inh. Fc1cc(Cl)ccc1Nc1ccnc2cc(I)ccc12 [GW551191]
Found: 58

Lookup: For the compound COc1ccc(C2=C(Nc3cccc(C(=O)O)c3)C(=O)NC2=O)cc1 [SB-390765] , report %Inh.
Found: 14

Lookup: Identify %Inh associated with the compound Cc1c(O)cccc1Nc1ccnc2ccc(C(F)(F)F)cc12.Cl [GW466413]
Found: 1

Lookup: Return value of %Inh for input O=C(Nc1n[nH]c2nc(-c3nccs3)c(Br)cc12)C1CC1 [SB-742251] , no commentary.
Found: 0

Lookup: Output %Inh of Nc1nc(-c2nccs2)c(-c2ccnc3ccccc23)s1 [GW693542]
Found: 100

====

# Test system: MAP4K3
# setupConditions: concentration: 1 μM, replicates: in singlicate; n = 1
Assign %Inh to each entry below.
Please give a number only; it is taken to be in %.

Lookup: Report %Inh for Cc1ccc(-c2cc(-c3c[nH]nc3-c3ccccn3)ccn2)cc1
Found: 0

Lookup: Give %Inh for Cc1cc(-c2ccc3c(c2)CC[C@@H](N[C@@H](C)c2ccccc2)C3)cnc1N.Cl
Found: 36

Lookup: Quick one: give measured %Inh for Cc1ccc(NC(=O)Nc2cccc(Cl)c2)cc1-c1ccc(C(=O)Nc2ccncc2)cc1
Found: 0

Lookup: Tell me its %Inh given Cc1cccc(-c2nc(-c3ccc(S(C)(=O)=O)cc3)sc2-c2ccnc(NCCc3ccccc3)c2)c1 as the entry.
Found: 0

Lookup: Answer with the recorded %Inh of Cn1cncc1-c1ccc2ncnc(Nc3ccc(OCc4ccccc4)cc3)c2c1 only.
Found: 16

Lookup: Tell me measured %Inh for O=C(Nc1ccc2c(c1)OCO2)NC1CCN(c2ccnc(Nc3ccc(F)cc3)n2)C1 (centres unmarked) please.
Found: 0

Lookup: Provide only the value of recorded %Inh for Cc1csc(-c2nc(Nc3ccncc3)c3ccccc3n2)n1
Found: 0

Lookup: Write down %Inh measured for item Clc1cc(Cl)cc(Nc2ccnc(Nc3cc(Cl)cc(Cl)c3)n2)c1
Found: 0

Lookup: Item Fc1cccc(COc2nnc(-c3ccc4c(c3)CCO4)o2)c1 : provide %Inh
Found: 2

Lookup: Output %Inh of O=c1cc(N2CCOCC2)nc2n(Cc3cccc(Cl)c3Cl)ccn12
Found: 0

Lookup: Identify %Inh associated with the compound Cc1c(O)cccc1Nc1ccnc2ccc(C(F)(F)F)cc12.Cl
Found: 0

Lookup: Quote %Inh reported for COC(=O)c1c(-c2ccccc2)c2cc(OC)ccc2c(=O)n1Cc1ccccc1 please.
Found: 0

Lookup: # return recorded %Inh for entry Nc1nc(-c2nccs2)c(-c2ccnc3ccccc23)s1
Found: 0

Lookup: Hello, please tell me recorded %Inh for this one: Cc1ccc(C(=O)Nc2ccc(Nc3ccnc4cc(-c5ccccn5)ccc34)cc2O)cc1.Cl
Found: 0

Lookup: Fill in reported %Inh for this entry: Cc1ccc(NC(=O)Nc2cc(C(C)(C)C)nn2-c2ccccc2)cc1
Found: 10

Lookup: Input COc1ccccc1CNC(=O)c1cc(C(=O)c2ccccc2C)c[nH]1 , output reported %Inh.
Found: 0

Lookup: Give reported %Inh value for O=C(O)COc1ncnc2cc(-c3ccc4[nH]ncc4c3)sc12
Found: 0

Lookup: Supply %Inh value. Item: Cc1cc(N2Cc3ccccc3C2)nc(Nc2ccc(S(=O)(=O)N3CCOCC3)cc2)n1.Cl
Found: 0

Lookup: In one line, give reported %Inh of the entry CC(C)(C)c1ccc(C(=O)Nc2cn3cc(-c4cccnc4)ccc3n2)cc1 .
Found: 5

Lookup: For COc1ccc(CNC(=O)NC2CCN(c3ccnc(Nc4cc(OC)c(OC)c(OC)c4)n3)C2)cc1 (centres unmarked) , write its %Inh.
Found: 0

Lookup: Return %Inh (reported value) for this compound: O=C(Nc1ccccc1)Nc1cccc(Oc2ccc3nccn3n2)c1
Found: 9

Lookup: # return recorded %Inh for entry COc1cc(Nc2nccc(N3CCC(NC(=O)Nc4cc(C)ccc4C)C3)n2)cc(OC)c1OC (centres unmarked)
Found: 0

Lookup: Return the recorded %Inh value; entry: CCn1c(-c2ccccn2)nc2cnccc21
Found: 0

FYI, the data here is from paper PMC5540273.
